Each recorded value in this set is attributed to patent US20260234242A1.

# test_target: T1, human CDH6 with EC2 removed, on HEK293T cells (HEK293T-hCDH6-EC2 deletion) (human, UniProt P55285 54-790)
# T1 construct: Signal peptide not removed here
# T1 sequence: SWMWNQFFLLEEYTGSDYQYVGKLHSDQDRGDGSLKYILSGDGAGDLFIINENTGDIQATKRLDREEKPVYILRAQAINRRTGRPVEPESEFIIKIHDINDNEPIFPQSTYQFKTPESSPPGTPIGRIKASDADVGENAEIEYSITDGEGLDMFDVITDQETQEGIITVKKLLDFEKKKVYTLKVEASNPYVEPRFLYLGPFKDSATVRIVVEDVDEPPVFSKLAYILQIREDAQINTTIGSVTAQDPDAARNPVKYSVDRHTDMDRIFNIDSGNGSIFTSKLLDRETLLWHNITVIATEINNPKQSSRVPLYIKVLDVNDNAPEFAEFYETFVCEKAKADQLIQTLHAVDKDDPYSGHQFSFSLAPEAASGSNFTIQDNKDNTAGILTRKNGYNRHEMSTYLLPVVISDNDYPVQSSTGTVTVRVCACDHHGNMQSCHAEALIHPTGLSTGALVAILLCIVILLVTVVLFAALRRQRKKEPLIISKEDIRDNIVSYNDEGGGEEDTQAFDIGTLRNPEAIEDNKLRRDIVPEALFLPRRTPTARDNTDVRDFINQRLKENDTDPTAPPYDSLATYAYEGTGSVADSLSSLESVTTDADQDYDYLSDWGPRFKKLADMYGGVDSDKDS
# test_name: FACS, HEK293T-hCDH6-EC2 deletion cells
readout: Max MFI (MFI)
Quick reminder: number only, in MFI, skip the unit.

| binder | readout | experimental_value |
| --- | --- | --- |
| CHI-CDH6-12 (antibody, human IgG1, kappa, V domains shown, also called CH1-CDH6-12; chimeric antibody of murine CDH6-12) VH: EVNLVESGGGLVQPGDSLTLSCSASGFTFTDYYMSWVRQFPGKALEWLALIRNKANSYTTEYSASVKGRFTISRDNSQSILYLQMNALRAEDSATYYCARDSYYSHDGFAYWGQGTLVTVSA VL: DIVLTQSPASLAVSLGQRATISCRASKSVSTSSYTYMHWYQQKPGQPPKLLIKFASYLESGVPARFSGSGSGTDFTLNIHPVEEEDAATYYCQHSREFPFTFGTGTKLEIKR | Max MFI | 11000 |

Lookup: Max MFI for CHI-CDH6-3 (antibody, human IgG1, kappa, V domains shown, also called CH1-CDH6-3; chimeric antibody of murine CDH6-3) VH: QVQLQQPGAELVKPGASVKLSCKASGYTFTSYWIHWVKQRPGQGLEWIGEINPSNGVTNCNENFKSKATLTVDKSSSTAYMQLSSLTSEDSAVYYCTIPNLLWWYFDVWGAGTTVTVSS VL: DIQMTQSPASLSVSVGETVTITCRASENIYSNLAWYQQKQGKSPQLLVYEATNLADGVPSRFSGSGSGTQYSLKINSLQSEDFGSYYCQHFWGTLWTFGGGTKLEIKR ?
Found: 7550

Lookup: If you can, please state the reported Max MFI value of CHI-CDH6-4 (antibody, human IgG1, kappa, V domains shown, also called CH1-CDH6-4; chimeric antibody of murine CDH6-4) VH: QVQLQQSGPELVKPGASVKISCKASGYAFSNFWMNWVKQRPGKGLEWIGWIYPGDGDTNYNGKFKDKATLTADKSSSTAYIQLSSLTSEDSAVYFCARLYDAWGFFDYWGQGTTLTVSS VL: QIVLTQSPAIMSASPGQKVTITCSASSSVNYMHWYQQKLGSSPKLWIYDKSKLAPGVPARFSGSGSGTSYSLTISSMEAEDAASYFCHQWSSYPPMTFGGGTKLEIKR .
Found: 75

Lookup: What value of measured Max MFI is listed for CHI-CDH6-14 (antibody, human IgG1, kappa, V domains shown, also called CHI-hCDH6-14; CH1-CDH6-14) VH: QIQLQQSGPELVKPGTSVKISCKASGYTFTDNYINWVRQRPGQGLEWIGWIYPGTGNSYYNEKFKGKATLTVDTSSSTAYMQFSSLTSEDSAVYLCASSYGDSFDYWGQGTTLTVSS VL: DIQMTQTTSSLSASLGNRVTISCRASQDIRNYLNWYQQKPDGTFKLLISYTSRLHSGVPSRFSGSGSGTDYSLTVSNLEPEDIATYYCQQYSQLPWTFGGGSRLEIKR ?
Found: 814

Lookup: Field request: Max MFI | item: DS-H01L02 (antibody, human IgG1, kappa, V domains shown, Positive control, variable regions from WO2018212136A1; also called positive control anti-human CDH6 antibody) VH: EVQLVQSGAEVKKPGASVKVSCKASGYTFTRNFMHWVRQAPGQGLEWMGWIYPGDGETEYAQKFQGRVTITADTSTSTAYMELSSLRSEDTAVYYCARGVYGGFAGGYFDFWGQGTLVTVSS VL: DIQMTQSPSSLSASVGDRVTITCKASQNIYKNLAWYQQKPGKAPKLLIYDANTLQTGVPSRFSGSGSGSDFTLTISSLQPEDFATYFCQQYYSGWAFGQGTKVEIKR
Found: 8390

Lookup: # Max MFI lookup, item CHI-CDH6-1 (antibody, human IgG1, kappa, V domains shown, also called CHI-hCDH6-1; CH1-CDH6-1) VH: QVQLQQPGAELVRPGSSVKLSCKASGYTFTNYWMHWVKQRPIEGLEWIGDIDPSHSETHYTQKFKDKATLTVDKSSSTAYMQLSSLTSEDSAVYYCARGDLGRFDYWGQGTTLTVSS VL: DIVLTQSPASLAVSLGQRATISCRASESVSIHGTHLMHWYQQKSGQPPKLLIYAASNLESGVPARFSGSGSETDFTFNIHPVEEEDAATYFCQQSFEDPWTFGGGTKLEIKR
Found: 51300
